# TARGET_DESC: PTPN2 (HiBIT-PTPN2 in 293T.109 cells) (Homo sapiens, UniProt P17706)
# Construct: expressed in transfected cells; host or cells: 293T.109 (293T WT from ATCC)
# Sequence (P17706 whole entry, species assumed): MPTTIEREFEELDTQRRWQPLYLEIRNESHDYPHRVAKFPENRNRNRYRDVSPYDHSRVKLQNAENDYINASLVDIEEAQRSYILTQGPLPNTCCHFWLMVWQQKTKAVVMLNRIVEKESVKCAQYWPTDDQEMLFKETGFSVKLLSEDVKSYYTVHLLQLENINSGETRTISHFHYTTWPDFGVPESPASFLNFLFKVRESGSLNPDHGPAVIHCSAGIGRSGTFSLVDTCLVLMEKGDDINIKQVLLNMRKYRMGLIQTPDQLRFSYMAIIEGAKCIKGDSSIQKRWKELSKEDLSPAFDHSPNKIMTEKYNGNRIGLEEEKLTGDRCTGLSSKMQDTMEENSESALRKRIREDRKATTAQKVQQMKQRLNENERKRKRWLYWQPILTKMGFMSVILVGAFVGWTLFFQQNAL
# ASSAY_SUMMARY: HiBiT Degradation 293T.109 PTPN2 (Nano-Glo HiBiT Lytic Assay)
# Assay type: cell-based
# PARTICULARS: 24.0 hours
MEASURE: DC50

# annotated cases, reported DC50 shown
MOLECULE	MEAS_VALUE
Cn1c(=O)n(C2CCC(=O)NC2=O)c2ccc(C3CCN(C(=O)Nc4cc(CS(=O)(=O)N5CC[C@@H](Nc6cccc(-c7sc(C(=O)O)c(OCC(=O)O)c7Cl)c6)CC5(C)C)ccc4F)CC3)cc21 (stereo partly drawn)	50 to 200 nM
Cn1c(=O)n(C2CCC(=O)NC2=O)c2ccc(C3CCN(C(=O)Nc4cccc(CS(=O)(=O)N5CCC(Nc6cccc(-c7sc(C(=O)O)c(OCC(=O)O)c7Cl)c6)CC5)c4F)CC3)cc21 (stereo not drawn)	50 to 200 nM

For the molecule shown here, Cc1cn(C2CCC(=O)NC2=O)c2ccc(C3CCN(C(=O)Nc4cccc(CS(=O)(=O)N5CC[C@H](Nc6cccc(-c7sc(C(=O)O)c(OCC(=O)O)c7Cl)c6)CC5(C)C)c4)CC3)cc12 (stereo partly drawn) , give the reported DC50.
200 to 1000 nM
